Ref: paper PMC12439480

assay: in vivo; design: species or system BALB/c nude mice; settings: female, BALB/c nude, mouse, iv, 3.7 MBq, total radioactivity, Tumor-to-Brain ratio (T/B)
Numbered stars: 1 amine (or outer) side, 2 acyl side, 3 side chain; on linkers, the order of the positions; unused ones are H or OH. Square brackets hold non-standard residues; d marks the D form. Peptide text beside a SMILES is read from it. * marks the point of attachment. DOTA = O=C(O)CN1CCN(CC(=O)O)CCN(CC(=O)*)CCN(CC(=O)O)CC1; d(γGlu) = O=C(O)[C@@H](CCC(=O)[*:2])N[*:1]; 1Nal = N[C@@H](Cc1cccc2ccccc12)C(=O)O; NMeNle = CCCC[C@H](NC)C(=O)O; PEG4 = NCCOCCOCCOCCOCCC(=O)O

{"columns": ["compound", "tissue to tissue ratio at 0.5 h"],
 "data": [
  ["CCCC[C@@H](C(=O)N[C@@H](CC(=O)O)C(=O)N[C@@H](Cc1cccc2ccccc12)C(N)=O)N(C)C(=O)[C@H](Cc1c[nH]c2ccccc12)NC(=O)CCOCCOCCOCCOCCNC(=O)CC[C@@H](NC(=O)CN1CCN(CC(=O)O)CCN(CC(=O)O)CCN(CC(=O)O)CC1)C(=O)O [[68Ga]Ga-DOTA-CCK-66, metal not drawn, reference compound] ({DOTA-d(γGlu)-PEG4}-W[NMeNle]D[1Nal]-NH2)", 72.8]
]}

###

assay: in vivo; design: species or system BALB/c nude mice; conditions: mouse, Spleen uptake
Numbered stars: 1 amine (or outer) side, 2 acyl side, 3 side chain; on linkers, the order of the positions; unused ones are H or OH. Square brackets hold non-standard residues; d marks the D form. Peptide text beside a SMILES is read from it. * marks the point of attachment. DOTA = O=C(O)CN1CCN(CC(=O)O)CCN(CC(=O)*)CCN(CC(=O)O)CC1; d(γGlu) = O=C(O)[C@@H](CCC(=O)[*:2])N[*:1]; 1Nal = N[C@@H](Cc1cccc2ccccc12)C(=O)O; NMeNle = CCCC[C@H](NC)C(=O)O; PEG4 = NCCOCCOCCOCCOCCC(=O)O

{"columns": ["molecule", "tissue uptake at 2 h"],
 "data": [
  ["CCCC[C@@H](C(=O)N[C@@H](CC(=O)O)C(=O)N[C@@H](Cc1cccc2ccccc12)C(N)=O)N(C)C(=O)[C@H](Cc1c[nH]c2ccccc12)NC(=O)CCOCCOCCOCCOCCNC(=O)CC[C@@H](NC(=O)CN1CCN(CC(=O)O)CCN(CC(=O)O)CCN(CC(=O)O)CC1)C(=O)O [[68Ga]Ga-DOTA-CCK-66, metal not drawn, reference compound] ({DOTA-d(γGlu)-PEG4}-W[NMeNle]D[1Nal]-NH2)", "0.45 %ID/g"]
]}

###

experiment: in vivo; parameters: species or system BALB/c nude mice; conditions: female, BALB/c nude, mouse, iv, 3.7 MBq, total radioactivity, Tumor-to-Blood ratio (T/B)
Numbered stars: 1 amine (or outer) side, 2 acyl side, 3 side chain; on linkers, the order of the positions; unused ones are H or OH. Square brackets hold non-standard residues; d marks the D form. Peptide text beside a SMILES is read from it. * marks the point of attachment. DOTA = O=C(O)CN1CCN(CC(=O)O)CCN(CC(=O)*)CCN(CC(=O)O)CC1; d(γGlu) = O=C(O)[C@@H](CCC(=O)[*:2])N[*:1]; 1Nal = N[C@@H](Cc1cccc2ccccc12)C(=O)O; NMeNle = CCCC[C@H](NC)C(=O)O; PEG4 = NCCOCCOCCOCCOCCC(=O)O

{"columns": ["compound", "tissue to tissue ratio at 2 h"],
 "data": [
  ["CCCC[C@@H](C(=O)N[C@@H](CC(=O)O)C(=O)N[C@@H](Cc1cccc2ccccc12)C(N)=O)N(C)C(=O)[C@H](Cc1c[nH]c2ccccc12)NC(=O)CCOCCOCCOCCOCCNC(=O)CC[C@@H](NC(=O)CN1CCN(CC(=O)O)CCN(CC(=O)O)CCN(CC(=O)O)CC1)C(=O)O [[68Ga]Ga-DOTA-CCK-66, metal not drawn, reference compound] ({DOTA-d(γGlu)-PEG4}-W[NMeNle]D[1Nal]-NH2)", 18.1]
]}
